Tested on: MDA-MB-231
The following compounds are listed with their measured GI50 values.
Put down the number, then write its unit next to it.

The following compounds have reported results that may help.
| compound | result |
| --- | --- |
| C=C1CCC2C3(C)COC(c4cn(-c5ccccc5)nc4-c4ccc(F)cc4)OC3CCC2(C)C1CC=C1C(=O)OCC1O (stereo not shown) | 1680 nM |
| C=C1CCC2C3(C)COC(c4cn(-c5ccccc5)nc4-c4ccccc4)OC3CCC2(C)C1CC=C1C(=O)OCC1O (stereo not shown) | 1720 nM |
| C=C1CCC2C3(C)COC(c4cn(-c5ccccc5)nc4-c4cccc(Cl)c4)OC3CCC2(C)C1CC=C1C(=O)OCC1O (stereo not shown) | 1490 nM |
| C=C1CCC2C3(C)COC(c4cn(-c5ccccc5)nc4-c4ccc(C)cc4)OC3CCC2(C)C1CC=C1C(=O)OCC1O (stereo not shown) | 1700 nM |
| C=C1CCC2C3(C)COC(c4cn(-c5ccccc5)nc4-c4ccc(Cl)cc4)OC3CCC2(C)C1CC=C1C(=O)OCC1O (stereo not shown) | 1680 nM |

Would you kindly look at the next entry?
**Q:** Name the reported GI50 value associated with the compound C=C1CCC2C3(C)COC(c4cn(-c5ccccc5)nc4-c4ccc(OC)cc4)OC3CCC2(C)C1CC=C1C(=O)OCC1O (stereo not shown)
**A:** 1470 nM

----------
Test system: SF-268
condition: read-out: 50% lethal concentration (LC50); SF-268, CNS
The following compounds are listed with their measured CC50 values.
Your answer is read as µM, so omit the unit and give the number.

The following compounds have reported results that may help.
| compound | observation_type | readout_number |
| --- | --- | --- |
| C=C1CCC2C3(C)COC(c4cn(-c5ccccc5)nc4-c4ccc(C)cc4)OC3CCC2(C)C1CC=C1C(=O)OCC1O (stereo not shown) [1i] | CC50 | 55.4 |
| C=C1CCC2C3(C)COC(c4cn(-c5ccccc5)nc4-c4cccc(Cl)c4)OC3CCC2(C)C1CC=C1C(=O)OCC1O (stereo not shown) [1d] | CC50 | 6.94 |
| C=C1CCC2C3(C)COC(c4cn(-c5ccccc5)nc4-c4cccc(F)c4)OC3CCC2(C)C1CC=C1C(=O)OCC1O (stereo not shown) [1c] | CC50 | 28.4 |
| C=C1CCC2C3(C)COC(c4cn(-c5ccccc5)nc4-c4ccc(Br)cc4)OC3CCC2(C)C1CC=C1C(=O)OCC1O (stereo not shown) [1h] | CC50 | 11.5 |
| C=C1CCC2C3(C)COC(c4cn(-c5ccccc5)nc4-c4ccc(F)cc4)OC3CCC2(C)C1CC=C1C(=O)OCC1O (stereo not shown) [1f] | CC50 | 25.7 |
| C=C1CCC2C3(C)COC(c4cn(-c5ccccc5)nc4-c4ccc(OC)cc4)OC3CCC2(C)C1CC=C1C(=O)OCC1O (stereo not shown) [1j] | CC50 | 7.77 |

Would you kindly look at the next entry?
**Q:** Record C=C1CCC2C3(C)COC(c4cn(-c5ccccc5)nc4-c4cccc(Br)c4)OC3CCC2(C)C1CC=C1C(=O)OCC1O (stereo not shown) [1e] : what is its CC50 with SF-268?
**A:** 8.98

----------
The following compounds are listed with their measured CC50 values.
Tested on: A498
condition: read-out: 50% lethal concentration (LC50); A498, Renal
Your answer is read as µM, so omit the unit and give the number.

The following compounds have reported results that may help.
| compound | target_system | observation_type | readout_number |
| --- | --- | --- | --- |
| C=C1CCC2C3(C)COC(c4cn(-c5ccccc5)nc4-c4ccccc4)OC3CCC2(C)C1CC=C1C(=O)OCC1O (stereo not shown) | A498 | CC50 | 27.7 |
| C=C1CCC2C3(C)COC(c4cn(-c5ccccc5)nc4-c4cccc(F)c4)OC3CCC2(C)C1CC=C1C(=O)OCC1O (stereo not shown) | A498 | CC50 | 53.3 |
| C=C1CCC2C3(C)COC(c4cn(-c5ccccc5)nc4-c4cccc(Cl)c4)OC3CCC2(C)C1CC=C1C(=O)OCC1O (stereo not shown) | A498 | CC50 | 38.1 |
| C=C1CCC2C3(C)COC(c4cn(-c5ccccc5)nc4-c4ccc(F)cc4)OC3CCC2(C)C1CC=C1C(=O)OCC1O (stereo not shown) | A498 | CC50 | 38.3 |

Would you kindly look at the next entry?
**Q:** Name the reported CC50 value associated with the compound C=C1CCC2C3(C)COC(c4cn(-c5ccccc5)nc4-c4ccc(OC)cc4)OC3CCC2(C)C1CC=C1C(=O)OCC1O (stereo not shown)
**A:** 39.2

Reference source for all entries: paper PMC12298351
